These measurements were taken from PubChem BioAssay (Tox21).

test_protocol: p53 small molecule agonists, cell-based qHTS assay with rat liver microsomes: qHTS cell viability counter screen (AID 1963580); further: on the % scale 0 is the no-effect control and ±100 the full control effect; nearly all actives have a fitted effect of over 45% in size
condition_notes: p53RE-bla HCT-116 + rat microsomes, ATP viability, 16 h; series mostly up to 66 µM
Records with an inconclusive call do not appear. The source made the active and inactive calls. The call rests on the fitted dose curve.
attribute_measured: activity change, negative = cytotoxicity

Oc1ccc2c(c1)CCC2 | inactive
O=C(COCCOCCOCC(=O)Nc1c(I)cc(I)c(C(=O)O)c1I)Nc1c(I)cc(I)c(C(=O)O)c1I | inactive
CNC(=O)c1cnn(-c2nc(N)c3ncn([C@@H]4O[C@H](CO)[C@@H](O)[C@H]4O)c3n2)c1 | inactive
CCCS(=O)c1ccc2nc(NC(=O)OC)[nH]c2c1 (stereo unspecified) | inactive

Measured activity change, negative = cytotoxicity of COC(C)(C)CCCC(C)CC=O (stereo unspecified) : inactive

Measured activity change, negative = cytotoxicity of CC(Oc1cc(Cl)ccc1Cl)C(=O)O (stereo unspecified) : inactive

Measured activity change, negative = cytotoxicity of O=C(NCCN1CCOCC1)c1ccc(Cl)cc1 : inactive

Measured activity change, negative = cytotoxicity of Cc1cccc([N+](=O)[O-])c1C(=O)O : inactive

Measured activity change, negative = cytotoxicity of CC(C)Cc1ccc(C(C)C(=O)OCc2ccccn2)cc1 (stereo unspecified) : inactive

Measured activity change, negative = cytotoxicity of CCCCc1ccc2c(n1)[C@@H](c1ccc(OC)cc1C[C@H](C)C(=O)O)[C@H](C(=O)O)[C@H]2c1ccc2c(c1)OCO2 : inactive

Measured activity change, negative = cytotoxicity of C=CCN1CCc2nc(N)sc2CC1 : inactive

---

target_of_assay: Muscarinic acetylcholine receptor M1 (Homo sapiens)
test_protocol: Cholinergic receptor muscarinic 1 (CHRM1) small molecule antagonists, cell-based qHTS assay (AID 1963588); further: nearly all actives have a fitted effect of over 40% in size
condition_notes: CHRM1-CHO antagonist mode, calcium flux fluorescence; series mostly up to 61.5 µM
Results filed as inconclusive are left out. The source made the active and inactive calls. Calls come from the whole dose curve.
Response enum: YES for active, NO for inactive

Recorded call for O=C1OC(=O)c2cccc3cccc1c23 ?
NO

Recorded call for CCC(=O)O[C@]1(C(=O)COC)[C@@H](C)C[C@H]2[C@@H]3CCC4=CC(=O)C=C[C@]4(C)C3(F)[C@@H](O)C[C@@]21C (stereo partly drawn) ?
NO

Recorded call for O=C1OC(=O)C2C3C=CC(C3)C12 (stereo not drawn) ?
NO

Recorded call for CCCCS(=O)(=O)N[C@@H](Cc1ccc(OCCCCC2CCNCC2)cc1)C(=O)O ?
NO

Recorded call for C1OCOCO1 ?
NO

Recorded call for COc1ccc(-c2coc3cc(O)ccc3c2=O)cc1 ?
NO

Recorded call for CC(COC(C)(C)C)OCCCO (stereo not drawn) ?
NO

Recorded call for COc1cc2c(cc1OC)C(=O)C(CC1CCN(Cc3ccccc3)CC1)C2 (stereo not drawn) ?
NO

Recorded call for CC(C)=CC(=O)C=C(C)C ?
NO

Recorded call for Nc1ccccc1S(=O)(=O)c1ccccc1 ?
NO

Recorded call for N#Cc1ccc(C/C(=N/NC(=O)Nc2ccc(OC(F)(F)F)cc2)c2cccc(C(F)(F)F)c2)cc1 ?
NO

Recorded call for Cc1nc2n(c(=O)c1CCN1CCC(c3noc4cc(F)ccc34)CC1)CCC[C@H]2O ?
YES

Recorded call for CCCCCC(C)N (stereo not drawn) ?
NO

Recorded call for C=COC(=O)C(C)(CC)CCC(C)C (stereo not drawn) ?
NO

Recorded call for ClC(Cl)(Br)Br ?
NO

Recorded call for C=C(C)C(=O)OCC(O)CO (stereo not drawn) ?
NO

Recorded call for CC(C)C(=O)OC/C=C/c1ccccc1 ?
NO

Recorded call for CC(=O)Nc1ccccc1C ?
NO

Recorded call for Cc1ccc(O)cn1 ?
NO

Recorded call for Cc1ccc2nc(N)[nH]c(=O)c2c1Sc1ccncc1 ?
NO

Recorded call for CCCCCOC(=O)CCC ?
NO

Recorded call for CC(C)c1cc(C(C)C)cc(C(C)C)c1 ?
NO

Recorded call for CC(C)(c1cc(Br)c(OCCO)c(Br)c1)c1cc(Br)c(OCCO)c(Br)c1 ?
NO

Recorded call for C=CC(=O)OCC(O)COc1ccccc1 (stereo not drawn) ?
NO

Recorded call for CCOc1ccccc1O ?
NO

Recorded call for O=C(NCC1CN(c2ccc(N3CCOCC3=O)cc2)C(=O)O1)c1ccc(Cl)s1 (stereo not drawn) ?
NO

Recorded call for O=C(c1ccccc1)c1cccc(O)c1 ?
NO

Recorded call for O=C(CCCl)NCc1ccccc1 ?
NO

---

test_protocol: Nuclear factor erythroid 2-related factor 2/antioxidant responsive element (Nrf2/ARE) small molecule agonists: luciferase reporter gene qHTS assay in human keratinocytes (AID 1919969); further: nearly all actives have a fitted effect of over 35% in size
condition_notes: KeratinoSens HaCaT ARE-luciferase, luminescence, 24 h; series mostly up to 92.4 µM
Records with an inconclusive call do not appear. Calls of active or inactive are those of the source. The call rests on the fitted dose curve.
Response enum: Y for active, N for inactive

Recorded call for CC(C)(O)CCCC1=CCC(C=O)CC1 (configuration not stated) ?
N

Recorded call for O=C(c1ccc(O)cc1)c1ccc(Cl)cc1 ?
N

Recorded call for O=[N+]([O-])c1cc(Cl)c(Cl)c(Cl)c1Cl ?
Y

Recorded call for CCCCCCCCN(C)CCCCCCCC ?
N

Recorded call for C[C@H]1C[C@H]2[C@@H]3CCC4=CC(=O)C=C[C@]4(C)[C@H]3C(=O)C[C@]2(C)[C@@]1(O)C(=O)CO ?
N

Recorded call for CCCCNc1c(C(=O)OCC)c(C)nc2c1cnn2CC ?
N

Recorded call for COc1ccc(C(=O)Nc2ccccc2)cc1[N+](=O)[O-] ?
N

Recorded call for Cc1c(NC(C)C)c(=O)n(-c2ccccc2)n1C ?
N

Recorded call for Cc1nc2ccccc2n1Cc1ccc(Cl)cc1 ?
N

Recorded call for C=CC(=O)OCC(Br)CBr (configuration not stated) ?
Y

Recorded call for Cc1cccc(C)c1C ?
N

Recorded call for NC1CCN(c2cccc(Cl)n2)CC1 ?
N

Recorded call for C#CC(C)N(C)C(=O)Nc1ccc(Cl)cc1 (configuration not stated) ?
N

Recorded call for CCCCCCn1c(=O)c2c(ncn2C)n(C)c1=O ?
N

Recorded call for C=C(C)C(=O)OCC[N+](C)(C)C ?
Y

Recorded call for O=C(O)c1ccccc1NCCc1ccccc1 ?
N

Recorded call for CCN(CC)CCOC(=O)C1(c2ccccc2)CCCC1 ?
N

Recorded call for CCCCCC(=O)OCC ?
N

Recorded call for NC(=O)N(O)[C@@H]1C=C[C@H](Oc2cccc(Oc3ccc(F)cc3)c2)C1 ?
Y

Recorded call for CC(C)CCCCCCc1ccc(OCCOCCO)cc1 ?
N

Recorded call for CCCCOc1cc(C(=O)NCCN(CC)CC)c2ccccc2n1 ?
N

Recorded call for O=C(O)c1ccccc1C(=O)Nc1ccc(S(=O)(=O)Nc2nccs2)cc1 ?
N

Recorded call for CC[C@H](NC(C)C)[C@H](O)c1ccc(O)c2[nH]c(=O)ccc12 ?
N

Recorded call for CN1CCN(CCCN2c3ccccc3Sc3ccc(Cl)cc32)CC1 ?
N

Recorded call for CC(C)=CCC1=C(O)c2ccccc2C(=O)C1=O ?
Y

Recorded call for Nc1nc2c(ncn2COCCO)c(=O)[nH]1 ?
N

Recorded call for c1ccc(-c2nn[nH]n2)cc1 ?
N

---

test_protocol: p53 small molecule agonists, cell-based qHTS assay with human liver microsomes (AID 1963577);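 further: p53 response element beta-lactamase reporter cells with liver microsomes plus NADPH; on the % scale 0 is the no-effect control and ±100 the full control effect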
condition_notes: HCT-116 p53RE-bla with human liver microsomes, ratio, 16 h; series mostly up to 66 µM
Records with an inconclusive call do not appear. Calls of active or inactive are those of the source. The call rests on the fitted dose curve.
attribute_measured: activation

These solved cases illustrate the format of a correct answer.
CCn1cc(C(=O)O)c(=O)c2cnc(N3CCCC3)nc21 | 10.8% [at 5.99 µM] (inactive)
O=C(O)c1cc(O)c2ccccc2c1O | inactive
C[C@H](O)C(=O)Nc1c(I)c(C(=O)NC(CO)CO)c(I)c(C(=O)NC(CO)CO)c1I | inactive
CCCCCCCCCCCC(C)=O | inactive
ClC(Cl)(Br)Br | inactive

Measured activation of CCCCCCCC(=O)OCC : inactive

Measured activation of CC(C)C[P+](C)(CC(C)C)CC(C)C : inactive

Measured activation of O=C(Oc1ccccc1C(=O)O)c1ccccc1O : inactive

Measured activation of COC(=O)CS : inactive

Measured activation of BrC/C=C/CBr : -4.84% [at 13.5 µM] (inactive)

Measured activation of O=S1OCCO1 : inactive

Measured activation of Cc1ccc(C(=O)Oc2ccc(C(O)CNC(C)(C)C)cc2OC(=O)c2ccc(C)cc2)cc1 (configuration not stated) : inactive

---

test_protocol: p53 small molecule agonists, cell-based qHTS assay with human liver microsomes: qHTS cell viability counter screen (AID 1963579); further: on the % scale 0 is the no-effect control and ±100 the full control effect; nearly all actives have a fitted effect of over 45% in size
condition_notes: p53RE-bla HCT-116 viability, ATP luminescence, 16 h, HLM; series mostly up to 66 µM
Source text: National Center for Advancing Translational Sciences [NCATS] Division of Preclinical Innovation [DPI] U.S. Environmental Protection Agency [EPA] National Institutes of Environmental Health Sciences [NIEHS] National Toxicology Program [NTP] U.S. Food and Drug Administration [FDA] p53, a tumor suppressor protein, is activated following cellular insult, including DNA damage and other cellular stresses. […] The activation of the reporter gene under culture conditions can be detected by fluorescence intensity. […]
Inconclusive results are not listed. Active and inactive are the calls of the source. The call rests on the fitted dose curve.
attribute_measured: activity change, negative = cytotoxicity

These solved cases illustrate the format of a correct answer.
CC1=CCC2C(C1)C2(C)C (configuration not stated) | inactive
Cc1nc(C)nc(N2C[C@@H](C)N(c3ccnc([C@@H](C)O)n3)[C@@H](C)C2)n1 | inactive
O=c1cc[nH]cc1 | inactive
C=CC(C)(CCC=C(C)C)OC(=O)C(C)C (configuration not stated) | inactive
Cc1ncc([N+](=O)[O-])n1CC(C)O (configuration not stated) | inactive

Measured activity change, negative = cytotoxicity of CO[C@H]1O[C@H](CO)[C@@H](O)[C@H](O)[C@H]1O : inactive

Measured activity change, negative = cytotoxicity of NC(=O)CC[C@@H](N)C(=O)O : inactive
